System: Monochoria vaginalis
Test: Test Example 12: herbicidal effect test by treatment during growing period in paddy field
Type: in vivo
Settings: 120 g/10a; treatment seven days after sowing in flooded paddy pot; assessed 14 days after treatment
Description: This test was performed with two replications per one formulation concentration plot, and 14 days after the formulation treatments, the weed suppression rate (%) was determined according to the following equation (Math. 2). Weed suppression rate (%)=(1−average dry weight (g) of plants in treated plots/average dry weight (g) of plants in untreated plots)×100 [Math. 2] […]
Note to self: Weed suppression rate (%) Monochoria vaginalis under 80% means Criterion met, ties and anything higher get Criterion not met.

Some solved entries appear below for comparison.
> print(dat)
                                   compound         class.name
1  Cc1ccc(S(=O)(=O)n2ncn(C(=O)N(c3ccc(Br)cc3Cl)C(C)C)c2=O)cc1 [Compound 11-648]      Criterion met
2  CC(C)N(C(=O)n1cnn(S(=O)(=O)c2cccc(F)c2)c1=O)c1ccccc1F [Compound 11-428]  Criterion not met
3  CCN(CC)C(=O)n1cnn(S(=O)(=O)c2ccccc2Cl)c1=O [Compound 11-500]      Criterion met
4  CCS(=O)(=O)n1ncn(C(=O)N(c2c(F)cccc2F)C(C)C)c1=O [Compound 11-1150]  Criterion not met
5  CC(C)N(C(=O)n1cnn(S(=O)(=O)c2ccc(Cl)cc2)c1=O)c1ccc(F)cc1F [Compound 11-588]  Criterion not met
6  CC(C)N(C(=O)n1cnn(S(=O)(=O)c2ccccc2F)c1=O)c1ccc(Br)cc1Cl [Compound 11-413]      Criterion met

Given CCc1ccc(S(=O)(=O)n2ncn(C(=O)N(c3ccc(F)cc3F)C(C)C)c2=O)cc1 [Compound 11-666] , is recorded Weed suppression rate (%) Monochoria vaginalis strictly lower than 80%? Criterion not met

And CC(C)N(C(=O)n1cnn(S(=O)(=O)C2CC2)c1=O)c1ccccc1 [Compound 11-159] ? Criterion not met

And CC(C)N(C(=O)n1cnn(S(=O)(=O)N(C)C)c1=O)c1ccc(F)cc1F [Compound 11-1064] ? Criterion not met

And COc1ccc(S(=O)(=O)n2ncn(C(=O)N(c3c(F)cc(F)cc3F)C(C)C)c2=O)cc1 [Compound 11-1155] ? Criterion not met

And CC(C)N(C(=O)n1cnn(S(=O)(=O)C(C)C)c1=O)c1ccccc1F [Compound 11-49] ? Criterion not met

And CC(C)N(C(=O)n1cnn(S(=O)(=O)c2ccccc2F)c1=O)c1c(F)cccc1F [Compound 11-404] ? Criterion met

And CC(C)N(C(=O)n1cnn(S(=O)(=O)C2CCC2)c1=O)c1ccc(F)cc1F [Compound 11-258] ? Criterion not met

And CC(C)N(C(=O)n1cnn(S(=O)(=O)c2c(F)cccc2F)c1=O)c1ccccc1 [Compound 11-762] ? Criterion not met

And Cc1cc(C)c(S(=O)(=O)n2ncn(C(=O)N(c3ccc(F)cc3C)C(C)C)c2=O)c(C)c1 [Compound 11-876] ? Criterion not met

And CC(C)N(C(=O)n1cnn(S(C)(=O)=O)c1=O)c1cccc(F)c1F [Compound 11-11] ? Criterion not met

And CC(C)N(C(=O)n1cnn(S(=O)(=O)c2cccc(F)c2)c1=O)c1ccccc1 [Compound 11-427] ? Criterion not met

And CC(C)N(C(=O)n1cnn(S(=O)(=O)C(C)C)c1=O)c1cccc(F)c1F [Compound 11-58] ? Criterion not met

And CC(C)N(C(=O)n1cnn(S(=O)(=O)C2CC2)c1=O)c1ccc(Cl)cn1 [Compound 11-233] ? Criterion not met

And CC(C)S(=O)(=O)n1ncn(C(=O)N(C)c2ccc(F)cc2F)c1=O [Compound 11-1127] ? Criterion met

And CN(C(=O)n1cnn(S(=O)(=O)c2ccc(Cl)cc2)c1=O)c1ccc(F)cc1F [Compound 11-1134] ? Criterion met

And CCS(=O)(=O)n1ncn(C(=O)N(c2c(F)cc(F)cc2F)C(C)C)c1=O [Compound 11-1154] ? Criterion not met

====

assay-endpoint: melting point

Use these answered entries as a reference point.
> print(dat)
                                   compound  assay.endpoint   value.observed
1  CCN(CC)C(=O)n1ncn(S(C)(=O)=O)c1=O [Compound 1-1]   melting point  81.7 to 85.3 °C
2  CC(C)N(C(=O)n1ncn(S(=O)(=O)C2CC2)c1=O)c1ccccc1 [Compound 1-168]   melting point    102 to 104 °C
3  CC(C)N(C(=O)n1ncn(S(=O)(=O)C(C)C)c1=O)c1ccccc1 [Compound 1-54]   melting point      92 to 94 °C

Need melting point, item CCN(CC)C(=O)n1ncn(S(=O)(=O)Cc2ccccc2)c1=O [Compound 1-968] 115.8 to 118.6 °C

And CC(C)N(C(=O)n1ncn(S(=O)(=O)C2CC2)c1=O)c1ccc(F)cc1F [Compound 1-150] ? 144 to 146 °C

====

Tested on: Echinochloa crus-galli
Assay: Test Example 12: herbicidal effect test by treatment during growing period in paddy field
Format: in vivo
Conditions: 120 g/10a; treatment seven days after sowing in flooded paddy pot; assessed 14 days after treatment
// reported Weed suppression rate (%) Echinochloa crus-galli per item
Respond numerically; units are % and should not be typed.

Use these answered entries as a reference point.
> print(dat)
                                smiles.code  value.observed
1  CC(C)N(C(=O)n1cnn(S(=O)(=O)N(C)C)c1=O)c1ccc(F)cc1Cl              90
2  CC(C)N(C(=O)n1cnn(S(=O)(=O)c2c(F)cccc2F)c1=O)c1c(F)cc(F)cc1F              90
3  CC(C)N(C(=O)n1cnn(S(=O)(=O)C2CCCCC2)c1=O)c1ccc(F)cc1Cl              90

Need Weed suppression rate (%) Echinochloa crus-galli, item CN(C(=O)n1cnn(S(=O)(=O)c2ccc(F)cc2)c1=O)c1ccc(F)cc1F 100

And Cc1cc(F)ccc1N(C(=O)n1cnn(S(C)(=O)=O)c1=O)C(C)C ? 100

And CC(C)N(C(=O)n1cnn(S(=O)(=O)c2ccc(C(C)(C)C)cc2)c1=O)c1ccccc1F ? 90

And CC(C)CS(=O)(=O)n1ncn(C(=O)N(c2ccc(F)cc2F)C(C)C)c1=O ? 100

And CCN(CC)C(=O)n1cnn(S(=O)(=O)c2ccccc2C)c1=O ? 90

And CC(C)N(C(=O)n1cnn(S(=O)(=O)C2CC2)c1=O)c1c(F)cc(F)cc1F ? 100

====

Test system: Monochoria vaginalis
Assay: Test Example 12: herbicidal effect test by treatment during growing period in paddy field
Format: in vivo
Settings: 120 g/10a; treatment seven days after sowing in flooded paddy pot; assessed 14 days after treatment
// reported Weed suppression rate (%) Monochoria vaginalis per item
Respond numerically; units are % and should not be typed.

Use these answered entries as a reference point.
> print(dat)
                                smiles.code           target.desc  value.observed
1  CCc1ccc(S(=O)(=O)n2ncn(C(=O)N(CC)CC)c2=O)cc1  Monochoria vaginalis              60
2  CC(C)N(C(=O)n1cnn(S(=O)(=O)c2cccs2)c1=O)c1ccc(F)cc1Cl  Monochoria vaginalis              80
3  CC(C)N(C(=O)n1cnn(S(=O)(=O)C2CC2)c1=O)c1ccc(C(F)(F)F)cc1F  Monochoria vaginalis              90

Need Weed suppression rate (%) Monochoria vaginalis, item Cc1ccc(S(=O)(=O)n2ncn(C(=O)N(c3c(F)cc(F)cc3F)C(C)C)c2=O)cc1 90

====

Tested on: Monochoria vaginalis
Test: Test Example 12: herbicidal effect test by treatment during growing period in paddy field
Format: in vivo
Details: 120 g/10a; treatment seven days after sowing in flooded paddy pot; assessed 14 days after treatment
// reported Weed suppression rate (%) Monochoria vaginalis per item
Respond numerically; units are % and should not be typed.

> print(dat)
                                smiles.code           target.desc  value.observed
1  CC(C)N(C(=O)n1cnn(S(=O)(=O)c2ccccc2Cl)c1=O)c1ccc(Cl)cn1  Monochoria vaginalis              60
2  CN(C(=O)n1cnn(S(=O)(=O)c2ccc(C(C)(C)C)cc2)c1=O)c1ccc(F)cc1F  Monochoria vaginalis              80
3  CC(C)N(C(=O)n1cnn(S(=O)(=O)C2CC2)c1=O)c1cccc(F)c1  Monochoria vaginalis              80

Need Weed suppression rate (%) Monochoria vaginalis, item CC(C)N(C(=O)n1cnn(S(=O)(=O)C2CC2)c1=O)c1ccc(F)cc1Cl 100

And Cc1ccc(N(C(=O)n2cnn(S(=O)(=O)c3cccs3)c2=O)C(C)C)c(F)c1 ? 80

And Cc1cc(F)ccc1N(C(=O)n1cnn(S(=O)(=O)c2ccc(F)cc2)c1=O)C(C)C ? 100

And CCN(C(=O)n1cnn(S(=O)(=O)c2ccccc2)c1=O)C1CCCCC1 ? 80

And Cc1ccc(N(C(=O)n2cnn(S(=O)(=O)c3c(F)c(F)c(F)c(F)c3F)c2=O)C(C)C)c(F)c1 ? 80
